- Test system: T47D
- measurement.protocol: NCI tumour cell line growth inhibition, 48 h
Calls of active or inactive are those of the source. No stated cut-off is given here; in the data, active = GI50 up to about 1.1 µM and inactive = higher.
test.readout: GI50

| compound | result |
| --- | --- |
| CCOCC(=O)N[C@H]1CCc2cc(OC)c(OC)c(OC)c2-c2ccc(OC)c(=O)cc21 | > 100 µM (inactive) |
| Cc1c2ccccc2c(C)n2c1nc1cc(Cl)c(Cl)cc12 | > 10 µM (inactive) |
| CC(C)NC(=O)OCc1c(COC(=O)NC(C)C)c(-c2cc[n+](COC(=O)C3CCCCC3)cc2)n2c1CCC2 | > 100 µM (inactive) |
| CCC1=C(C=O)c2cc3[nH]c(cc4nc(c5c6[nH]c(cc1n2)c(C)c6C(=O)C5C(=O)OC)C(CCC(=O)OC)C4C)c(C)c3CC (centres undefined) | > 100 µM (inactive) |
